Study System: BRM (Homo sapiens, UniProt P51531)
Construct: Western Blot Screen of BRM Degradation in SW1573 Cells; endogenous in cells; host or cells: SW1573 cells
Sequence (P51531 whole entry): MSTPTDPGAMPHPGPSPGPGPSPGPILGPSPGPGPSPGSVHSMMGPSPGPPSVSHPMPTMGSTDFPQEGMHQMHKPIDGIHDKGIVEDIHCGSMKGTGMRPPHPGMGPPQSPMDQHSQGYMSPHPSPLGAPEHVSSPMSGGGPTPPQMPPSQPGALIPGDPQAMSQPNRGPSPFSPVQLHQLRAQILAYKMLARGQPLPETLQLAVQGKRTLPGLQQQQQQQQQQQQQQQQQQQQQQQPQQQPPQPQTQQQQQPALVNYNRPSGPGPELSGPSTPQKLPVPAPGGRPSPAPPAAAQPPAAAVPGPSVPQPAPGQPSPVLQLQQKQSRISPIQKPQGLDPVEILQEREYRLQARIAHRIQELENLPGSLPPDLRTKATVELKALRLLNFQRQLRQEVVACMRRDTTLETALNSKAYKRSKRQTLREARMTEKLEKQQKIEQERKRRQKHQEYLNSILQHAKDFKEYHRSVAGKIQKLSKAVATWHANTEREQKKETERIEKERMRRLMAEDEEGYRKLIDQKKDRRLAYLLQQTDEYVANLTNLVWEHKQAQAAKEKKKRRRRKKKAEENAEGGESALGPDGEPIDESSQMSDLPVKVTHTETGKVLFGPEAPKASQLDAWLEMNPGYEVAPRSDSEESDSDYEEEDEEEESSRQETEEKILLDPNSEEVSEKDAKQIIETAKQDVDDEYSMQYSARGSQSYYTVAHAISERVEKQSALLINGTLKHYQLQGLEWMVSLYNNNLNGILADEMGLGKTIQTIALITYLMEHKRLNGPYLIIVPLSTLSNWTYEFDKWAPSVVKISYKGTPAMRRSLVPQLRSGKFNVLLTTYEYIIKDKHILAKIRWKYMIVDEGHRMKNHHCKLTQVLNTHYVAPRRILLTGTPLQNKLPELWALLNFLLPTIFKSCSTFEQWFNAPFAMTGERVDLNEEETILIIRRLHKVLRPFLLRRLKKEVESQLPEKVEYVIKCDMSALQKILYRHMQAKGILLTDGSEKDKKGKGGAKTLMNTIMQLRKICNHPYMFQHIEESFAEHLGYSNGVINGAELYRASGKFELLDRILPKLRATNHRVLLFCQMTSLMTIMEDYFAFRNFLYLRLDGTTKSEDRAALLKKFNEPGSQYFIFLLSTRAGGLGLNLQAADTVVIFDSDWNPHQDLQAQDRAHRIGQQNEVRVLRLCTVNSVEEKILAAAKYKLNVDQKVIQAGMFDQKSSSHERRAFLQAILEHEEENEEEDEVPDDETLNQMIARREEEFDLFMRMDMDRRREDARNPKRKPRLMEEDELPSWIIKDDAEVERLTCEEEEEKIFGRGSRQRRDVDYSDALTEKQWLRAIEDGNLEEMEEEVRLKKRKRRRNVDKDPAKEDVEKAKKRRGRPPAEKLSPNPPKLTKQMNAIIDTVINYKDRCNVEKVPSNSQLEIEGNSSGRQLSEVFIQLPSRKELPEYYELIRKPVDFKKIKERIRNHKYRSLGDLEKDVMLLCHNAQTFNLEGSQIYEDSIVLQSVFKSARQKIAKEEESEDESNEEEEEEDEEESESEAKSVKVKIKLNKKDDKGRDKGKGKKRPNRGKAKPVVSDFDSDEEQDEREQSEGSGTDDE
Method: BRM degradation (Dmax and DC50) in SW1573 cells, Western blot screen / In-Cell Western screen
Assay type: cell-based
Settings: overnight (18-20 hours) treatment, read-out: Dmax (%)** (% degraded)

Molecule: Cc1ncsc1-c1ccc([C@H](C)NC(=O)[C@@H]2C[C@@H](O)CN2C(=O)[C@@H](c2cc(N3CCC(CN4CCC5(CCC5N5CCO[C@H](CN6C7CCC6CN(c6cc(-c8ccccc8O)nnc6N)C7)C5)CC4)CC3)no2)C(C)C)cc1 (stereo partly shown)
Study System: BRM (Homo sapiens, UniProt P51531)
Dmax: > 75%
//
Molecule: CC(C)[C@@H](C(=O)N1C[C@H](O)C[C@H]1C(=O)N[C@@H](C)c1ccc(-c2ccnn2C)cc1)c1cc(N2CCC(CN3CCC(CN4CCC5(CC4)CC(Oc4cc(N6C7CCC6CN(c6cc(-c8ccccc8O)nnc6N)C7)ccn4)C5)CC3)CC2)no1
Study System: BRM (Homo sapiens, UniProt P51531)
Dmax: > 75%
//
Molecule: Cc1ncsc1-c1ccc([C@H](C)NC(=O)C2C[C@@H](O)CN2C(=O)[C@@H](c2cc(N3CCC(CN4CC[C@@H](Oc5cc(N6C7CCC6CN(c6cc(-c8ccccc8O)nnc6N)C7)ccn5)[C@@H](F)C4)CC3)no2)C(C)C)cc1 (stereo in doubt)
Study System: BRM (Homo sapiens, UniProt P51531)
Dmax: > 75%
//
Molecule: Cc1ncsc1-c1ccc([C@H](C)NC(=O)[C@@H]2C[C@@H](O)CN2C(=O)[C@@H](c2cc(N3CCC(CN4CCC5(CC4)CC(N4C[C@H](CN6C7CCC6CN(c6cc(-c8ccccc8O)nnc6N)C7)O[C@H](C)C4)C5)CC3)no2)C(C)C)cc1
Study System: BRM (Homo sapiens, UniProt P51531)
Dmax: > 75%
